Task for the reader: assign each of the following variants its reported FACS-Seq fitted mean (log10).
B1: library; a variant is named by its letters at N, in order (parent)
chain: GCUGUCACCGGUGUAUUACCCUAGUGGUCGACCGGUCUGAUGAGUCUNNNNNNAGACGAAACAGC

# Variants of: B1
# Experimental details: FACS-Seq fitted mean relative fluorescence mCherry/BFP without ligand (log10 relative fluorescence); ligand: hypoxanthine (xanthine aptamer); higher = higher reporter protein expression
# Condition info: HEK293T, ligand present: no
Numbers only.

Solved cases below.
| Sequence change | Readout type | Reported measurement |
| --- | --- | --- |
| AAAUCG | FACS-Seq fitted mean (log10) | 0.0899 |
| UACAGC | FACS-Seq fitted mean (log10) | 0.821 |
| AGCUAC | FACS-Seq fitted mean (log10) | -0.583 |
| CAGCUC | FACS-Seq fitted mean (log10) | 0.219 |
| GCGGUC | FACS-Seq fitted mean (log10) | 0.327 |
| AGAAUG | FACS-Seq fitted mean (log10) | -0.0981 |

Give FACS-Seq fitted mean (log10) for each listed item.
1. CGGCAU
2. AAUACG

**A:**
-0.119
0.407

Give FACS-Seq fitted mean (log10) for each listed item.
1. GGUCUA
2. ACUUAG
3. GAAUAC

**A:**
0.47
0.227
0.23

Give FACS-Seq fitted mean (log10) for each listed item.
1. UGGUCG
2. GAAUCA
3. AAGCCG
4. GGAGGA
5. UUCGAA
6. UAGGUC
7. UCGAGU
8. CACGGU

**A:**
1: -0.282; 2: 0.438; 3: 0.00433; 4: -0.168; 5: 0.708; 6: 0.588; 7: -0.023; 8: 0.663

Give FACS-Seq fitted mean (log10) for each listed item.
1. GUUACG
2. CAGCGG
3. UUUAAU
4. UGUAUG

**A:**
1: 0.564; 2: 0.262; 3: 0.485; 4: 0.361
